# Study target: T1, human GIP receptor (human) (UniProt P48546)
# T1 sequence (looked up): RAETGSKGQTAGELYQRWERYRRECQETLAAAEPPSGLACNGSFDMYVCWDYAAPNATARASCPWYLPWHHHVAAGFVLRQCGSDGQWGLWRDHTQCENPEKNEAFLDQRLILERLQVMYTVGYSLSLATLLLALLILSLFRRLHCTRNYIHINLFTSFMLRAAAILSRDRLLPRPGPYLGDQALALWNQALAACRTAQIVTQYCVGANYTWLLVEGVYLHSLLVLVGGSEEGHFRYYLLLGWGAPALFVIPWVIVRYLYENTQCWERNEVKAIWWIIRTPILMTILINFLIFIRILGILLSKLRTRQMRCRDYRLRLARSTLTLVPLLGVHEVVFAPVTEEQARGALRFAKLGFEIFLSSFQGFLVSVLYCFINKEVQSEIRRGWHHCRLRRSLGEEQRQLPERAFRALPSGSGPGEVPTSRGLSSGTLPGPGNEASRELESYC
# Measurement description: cell-based or functional assay
Starred links: 1 amine or outer side, 2 acyl side, 3 side chain; linkers in the order of their positions; H or OH if unused. Non-standard residues stand in square brackets, D forms with d. Groups on a side chain read outwards from the residue. No end group written: not given here. *: point of attachment. C20 diacid = O=C(O)CCCCCCCCCCCCCCCCCCC(=O)*; C18 diacid = O=C(O)CCCCCCCCCCCCCCCCC(=O)*; αMePhe(2-F) = C[C@](N)(Cc1ccccc1F)C(=O)O; γGlu = O=C(O)[C@H](CCC(=O)[*:2])N[*:1]; αMeL = CC(C)C[C@](C)(N)C(=O)O; Dab = NCC[C@H](N)C(=O)O; AEEA = NCCOCCOCC(=O)O; Aib = CC(C)(N)C(=O)O
Our labelling divides records by Relative cAMP EC50 into ranges: range A = under 0.1 nM, range B = from 0.1 nM up to 0.2 nM, range C = 0.2 nM and over

Binder: Y[Aib]QGT[αMePhe(2-F)]TSDYSKILDKIAQKAFIEYLIEGGPSSGAPPPSEG-NH2 (not fully specified (residue 20)) [Example 355]
Classification: range A
--
Binder: YXQGTFTSDXSXXLDKKAQXAFIEYLLEAGPSSGAPPPSGX (synthetic construct; SITE 2: note = 2-Aminoisobutyric Acid; SITE 10: note = 3-(4-Pyridyl)-L-alanine; SITE 12: note = L-ornithine; SITE 13: note = alpha-methyl-leucine; SITE 17: note = Lysine is chemically modified through conjugation of the epsilon-amino group of the Lysine side chain with (2-[2-(2-) [Example 274]
Classification: range C
--
Binder: YXQGTFTSDXSXXLDKKAQXAFIEXLLEGGPSSGAPPPSGS (synthetic construct; SITE 2: note = 2-Aminoisobutyric Acid; SITE 10: note = 3-(4-Pyridyl)-L-alanine; SITE 12: note = L-ornithine; SITE 13: note = alpha-methyl-leucine; SITE 17: note = Lysine is chemically modified through conjugation of the epsilon-amino group of the Lysine side chain with (gamma-Gl)) [Example 942]
Classification: range B
--
Binder: YXQGTFTSDXSQXLDKKAQXAFIEXLLEGGPSSGAPPPSGS (synthetic construct; SITE 2: note = 2-Aminoisobutyric Acid; SITE 10: note = 3-(4-Pyridyl)-L-alanine; SITE 13: note = alpha-methyl-leucine; SITE 17: note = Lysine is chemically modified through conjugation of the epsilon-amino group of the Lysine side chain with (2-[2-(2-Amino-ethoxy)-ethoxy]-acetyl)) [Example 910]
Classification: range B
--
Binder: Y[Aib]QGTFTSDFS[Dab][αMeL]LDKK([AEEA-γGlu-C18 diacid])AQ[Aib]AFIEYLLE[Aib]GPSSGAPPPSGS-NH2 (ends and bridges not checked) [Example 133]
Classification: range B
--
Binder: Y[Aib]QGT[αMePhe(2-F)]TSDYSKLLDKQAQK([AEEA-γGlu-C20 diacid])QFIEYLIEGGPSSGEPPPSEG-NH2 [Example 309]
Classification: range C
--
Binder: YXQGTFTSDFSKXLDKKAQXAFIEWLLEGGPSSGAPPPSEG (Aib, αMeL; K acylated; C-terminal amide; synthetic construct; SITE 2: note = 2-Aminoisobutyric Acid; SITE 13: note = alpha-methyl-leucine; SITE 17: note = Lysine is chemically modified through conjugation of the epsilon-amino group of the Lysine side chain with (2-[2-(2-Amino-ethoxy)-ethoxy]-acetyl)-(gamma-Glu)-CO-(CH2) 18-CO2H; SITE 20: n) [Example 37]
Classification: range C
--
Binder: YXQGTFTSDFSXXLDKKAQXAFIEYLLEXGPSSGXPPPSGS (Aib, Orn, alpha-methyl-Leu, lipidated Lys, C-terminal amide; synthetic construct; SITE 2: note = 2-Aminoisobutyric Acid; SITE 12: note = L-ornithine; SITE 13: note = alpha-methyl-leucine; SITE 17: note = Lysine is chemically modified through conjugation of the epsilon-amino group of the Lysine side chain with (2-[2-(2-Amino-ethoxy)-ethoxy]-acetyl)-(gamma-Glu)) [Example 239]
Classification: range A
--
Binder: YXQGTFTSDFSKXLDKKAQXAFIEYLLAGGPSSGEPPPSEE (Aib, alpha-methyl-Leu, acylated Lys, C-terminal amide; synthetic construct; SITE 2: note = 2-Aminoisobutyric Acid; SITE 13: note = alpha-methyl-leucine; SITE 17: note = Lysine is chemically modified through conjugation of the epsilon-amino group of the Lysine side chain with (2-[2-(2-Amino-ethoxy)-ethoxy]-acetyl)-(gamma-Glu)-CO-(CH2) 18-CO2H; SITE 20: n) [Example 4]
Classification: range B
--
Binder: YXQGTFTSDXSQXLDXKAQXAFIEXLIAXGPSSGAPPPSGSEE (non-natural residues, lipidated Lys, C-terminal amide; synthetic construct; SITE 2: note = 2-Aminoisobutyric Acid; SITE 10: note = 3-(4-Pyridyl)-L-alanine; SITE 13: note = alpha-methyl-leucine; SITE 16: note = L-ornithine; SITE 17: note = Lysine is chemically modified through conjugation of the epsilon-amino group of the Lysine side chain with (gamma-Gl)) [Example 1107]
Classification: range A
--
Binder: YXQGTXTSDXXILLDXKAQXXFIEYLIEGGPSSGEPPPEGEEE (Lys acylated (γ-Glu)2-C18 diacid; non-natural residues; C-terminal amide; synthetic construct; SITE 2: note = 2-Aminoisobutyric Acid; SITE 6: note = alpha-methyl-2-fluoro-L-phenylalanine; SITE 10: note = 3-(4-Pyridyl)-L-alanine; SITE 11: note = alpha-methyl-L-serine; SITE 16: note = L-ornithine; SITE 17: note = Lysine is chemically modified through conjugation of the epsi) [Example 606]
Classification: range B
